test system: DU145 (prostate cancer); assay: Effect of compounds on tumor cell lines (assay of Latham et al.), DU145; format: cell-based; conditions: DU145 cells, 96 hours after treatment, 1 μM to 100 μM; read-out: DU 145 potency (IC50)
Readout Kind: IC50

Ask: What does the record list as IC50 for Cc1ccc(CSC(=Cc2sccc2C)C(=O)c2ccc(Cl)cc2)cc1 ?
Reply: 10 to 25 µM

More entries:
Ask: What does the record list as IC50 for CN1CCN(CCNC(=O)c2ccc(C(=O)C(=Cc3ccc(F)c([N+](=O)[O-])c3)SCc3ccc(Br)cc3)cc2)CC1 ?
Reply: 1 to 10 µM

Ask: What does the record list as IC50 for COc1ccc(C=C(SCc2ccc(Cl)cc2)C(=O)c2ccc(Cl)cc2)cc1O ?
Reply: 1 to 10 µM

Ask: What does the record list as IC50 for COc1ccccc1C=C(SCc1ccc(Cl)cc1)C(=O)c1ccc(Cl)cc1 ?
Reply: 1 to 10 µM

Ask: What does the record list as IC50 for O=C(C(=Cc1c[nH]c2ccc(Br)cc12)SCc1ccc(Cl)cc1Cl)c1ccc(Cl)cc1 ?
Reply: 10 to 25 µM

Ask: What does the record list as IC50 for Cc1ccc(CSC(=Cc2cc(C)ccc2C)C(=O)c2ccc(Cl)cc2)cc1 ?
Reply: 10 to 25 µM

Ask: What does the record list as IC50 for CN(C)c1ccc(C=C(SCc2ccc(Cl)cc2)C(=O)c2ccc(Br)cc2)cc1 ?
Reply: 10 to 25 µM

Ask: What does the record list as IC50 for COc1ccc(OC)c(C=C(SCc2ccc(Cl)c(Cl)c2)C(=O)c2ccc(Cl)cc2)c1 ?
Reply: 10 to 25 µM

Ask: What does the record list as IC50 for Cc1[nH]c(/C=C(/SCc2ccc(Br)cc2)C(=O)c2ccc(Br)cc2)c(C)c1C(=O)O ?
Reply: 50 to 100 µM

Ask: What does the record list as IC50 for CC(=O)Nc1ccc(/C=C(/SCc2ccc(F)cc2)C(=O)c2ccc(C(=O)O)cc2)cc1[N+](=O)[O-] ?
Reply: 10 to 25 µM

Ask: What does the record list as IC50 for O=C(O)c1ccc(C(=O)/C(=C\c2ccc(F)c([N+](=O)[O-])c2)SCc2ccccc2)cc1 ?
Reply: 1 to 10 µM

###

pIC50 values for the molecules below.
system: K562 (chronic myelogenous leukaemia); assay: Effect of compounds on tumor cell lines (assay of Latham et al.), K562; format: cell-based; settings: K562 cells, 96 hours after treatment, 1 μM to 100 μM; read-out: K 562 potency (IC50)
pIC50: −log10 of the molar value.

Previously resolved entries follow.
Ask: Return pIC50 measured with K562 (chronic myelogenous leukaemia) given this molecule: O=C(O)c1ccc(C(=O)C(=Cc2ccc(Cl)c([N+](=O)[O-])c2)SCc2ccc(F)cc2)cc1 [Example 255]
Reply: ≥ 6.00

Ask: Return pIC50 measured with K562 (chronic myelogenous leukaemia) given this molecule: O=C(C(=Cc1c[nH]c2ccc(Br)cc12)SCc1ccc(Cl)cc1Cl)c1ccc(Cl)cc1 [Example 123]
Reply: 5.00 to 6.00

Ask: Return pIC50 measured with K562 (chronic myelogenous leukaemia) given this molecule: CN(C)c1ccc(C=C(SCc2ccc(Cl)cc2)C(=O)c2ccc(C(=O)O)cc2)cc1 [Example 209]
Reply: 5.00 to 6.00

// moving on: another record for pIC50
Ask: Return pIC50 measured with K562 (chronic myelogenous leukaemia) given this molecule: Cc1ccc(CSC(=Cc2ccc(Cl)c([N+](=O)[O-])c2)C(=O)c2ccc(C(=O)O)cc2)cc1 [Example 287]
Reply: ≥ 6.00
